test system: MS2 coat protein; assay: apparent KD of MS2 coat protein; designed switch direction (-1 OFF switch, 1 ON switch): 1; higher = weaker reporter binding; settings: input ligand: microRNA oligo, concentration not stated
valueKind: apparent KD of MS2 coat protein (nM)
Provide the reading as a plain figure in nM.

Here is how some sequences turned out for apparent KD of MS2 coat protein.
{"sequenceRecord": "GAGCCAGUCCGAGGAUAUUCAUAUUAACACAUGAGGAUCACCCAUGUGGGCUCAGAAGAGCCCUGGGAGAAGGCGGACUGGCUC [SS-NG2-LRO16] (Eterna round: R96, puzzle: Same State NG 2)", "targetOrSystem": "MS2 coat protein", "outputUnit": "nM", "apparent KD of MS2 coat protein": 232}
{"sequenceRecord": "GCGUUUAACGUAGGAUAUCGAGCUACAUGAGGAUCACCCAUGUCUUUGUAAAGUUUUUUUAAUUCCGAGAAGGACGUAUUGCAU [JR_SSNG2_Sub073] (Eterna round: R96, puzzle: Same State NG 2)", "targetOrSystem": "MS2 coat protein", "outputUnit": "nM", "apparent KD of MS2 coat protein": 27.2}

# input for lookup
Request: Given GCUGGAAAUCACAUGAGGAUCACCCAUGUUCCGGAAACGGCACAGGAUAUCUGUCCGAAAAGGUCAGAGAAGGGUGAAACCAGC [Fiskers NG3ss - 85] (Eterna round: R96, puzzle: Same State NG 3) , state its recorded apparent KD of MS2 coat protein.
Response: 56.1

---

system: MS2 coat protein; assay: apparent KD of MS2 coat protein; designed switch direction (-1 OFF switch, 1 ON switch): -1; higher = weaker reporter binding; settings: Eterna round: R95; input ligand: none
Entries and their apparent KD of MS2 coat protein
Answer with a number only, understood to be in nM.

{"sequenceRecord": "AAUAAUGCAGGAUAUACAUGAGGAUCACCCAUGUGAAUAAAAUAAAUAAAAUGAUAAAGUAGAAGGGCAAAUAA [JMF's solution 1] (puzzle: Exclusion 3)", "valueKind": "apparent KD of MS2 coat protein", "reportedValue": 35.5}
{"sequenceRecord": "CAUGAUCUUCGGAUCAUGUACAUGAGGAUCACCCAUGUUACGAGCAGAUUUUCAUACAAGCUUUUUGCUCGUCUUAU [Sensor v3 - Turn-off variant 1 - 31] (puzzle: Sensor v3, turn-off variant 1)", "valueKind": "apparent KD of MS2 coat protein", "reportedValue": 28.7}
{"sequenceRecord": "UUUAAUUUUUUUUUUUUACAAGCUUUUUGCUCGUCUUAUACAUGAGGAUCACCCAUGUAGGUGAAAGGUAAAUUAUC [JMF 65] (puzzle: Sensor v3, turn-off variant 2)", "valueKind": "apparent KD of MS2 coat protein", "reportedValue": 30.9}
{"sequenceRecord": "AAGAAACAUGAGGAUCACCCAUGUGAGGAUAUGAAAAAGAAAAUAAAAUAAAUAAGAAUCAGAAGGCACAAAGG [Mat - Mod of Hog D5] (puzzle: Exclusion 1)", "valueKind": "apparent KD of MS2 coat protein", "reportedValue": 40.2}
{"sequenceRecord": "ACGUGAUAUCUGUCGUUGGACAUGAGGAUCACCCAUGUAAGCUUUUUGCUCGUCUUAUAACCCGGUGACAGACCUUC [Dienlave] (puzzle: Sensor v3, turn-off variant 1)", "valueKind": "apparent KD of MS2 coat protein", "reportedValue": 23.9}

Request: So what's the measured apparent KD of MS2 coat protein for this one? AAUAAGCGAGGAUAUGCGGGCGGGUGCGGCCAGCCGAUGUGACAUGAGGAUCACCCAUGUAGAAGGCGCAAUAA [Excls2-VI] (puzzle: Exclusion 2)
Response: 10.7

Request: Form field: reported apparent KD of MS2 coat protein of GGUGCUGGCGCGUCGGUGUUGGUGCAAUAAGCUUGUGAAACAUGAGGAUCACCCAUGUCCUCAUAAGCUCGUCUUAU [salish99_TOv2_r2_086] (puzzle: Sensor v3, turn-off variant 2)
Response: 15.9

Request: # get_value(readout='apparent KD of MS2 coat protein', item= CAGAAGCAAGGAUAUACAACGGGCCACAGAGCGAGAGGGCAACAUGAGGAUCACCCAUGUAGAAGGUGCGUAAC [Timaina] (puzzle: Exclusion 2) )
Response: 74.4

Request: # lookup: apparent KD of MS2 coat protein of GAAAAGGUAGGAUAUACGAAAAAAAAGGGUAAAAAAAAAACACAUGAGGAUCACCCAUGUAGAAGGACCAAAAG [salish99_ex2_r3_062] (puzzle: Exclusion 2)
Response: 34

Request: Given the entry CGUGCGUAUGUGAGGAUAUGCUGGUCCUUGGCUCGGCAGAAGGCACAUGAGGAUCACCCAUGUGGUGUCGUACG [salish99_Bmod_ex4_062] (puzzle: Brourd's mod of Exclusion 4) , report its measured apparent KD of MS2 coat protein.
Response: 171

---

Reported apparent KD of MS2 coat protein values for a set of sequences
test system: MS2 coat protein; assay: apparent KD of MS2 coat protein; designed switch direction (-1 OFF switch, 1 ON switch): -1; higher = weaker reporter binding; details: Eterna round: R95; input ligand: microRNA oligo, concentration not stated
Just the number in nM, nothing appended.

{"sequenceRecord": "GUGUAGACAGGAUAUGCUUUGAGCAUAUGAGAGUAUGCUCGACAUGAGGAUCACCCAUGUAGAAGGGUCUACAC [LRO-Excl2-02] (puzzle: Exclusion 2)", "targetOrSystem": "MS2 coat protein", "outputUnit": "nM", "apparent KD of MS2 coat protein": 12.9}
{"sequenceRecord": "AGGAAGCAAGGAUAUACGAGGAGAAGGUGGAGAGUUAAAGGACAUGAGGAUCACCCAUGUAGAAGGUGCGAGAA [JR_Exclu2_Sub045] (puzzle: Exclusion 2)", "targetOrSystem": "MS2 coat protein", "outputUnit": "nM", "apparent KD of MS2 coat protein": 52.2}
{"sequenceRecord": "GGUACUAACACGAAAGUGUUAGUACAAUAAGCUAGUGGAACAUGAGGAUCACCCAUGUCCUCAUUAGCUCGUCUUAU [Mat - Sensor v3 - Turn-off var 2 - D36] (puzzle: Sensor v3, turn-off variant 2)", "targetOrSystem": "MS2 coat protein", "outputUnit": "nM", "apparent KD of MS2 coat protein": 43.8}
{"sequenceRecord": "GAUUGACAUGAGGAUCACCCAUGUGAGGAUAUCGGCCGGACCGUGUUAGCUUCCGUCGCGAGAAGGCGCAUAGG [Exclusion 1 V38] (puzzle: Exclusion 1)", "targetOrSystem": "MS2 coat protein", "outputUnit": "nM", "apparent KD of MS2 coat protein": 42.8}
{"sequenceRecord": "GAAAAGUGAGGAUAUGGUAAAAGAAAAAGAAAAAGAAAACUCCAGAAGGCACAUGAGGAUCACCCAUGUAAAAG [salish99_ex4_r3_005] (puzzle: Exclusion 4)", "targetOrSystem": "MS2 coat protein", "outputUnit": "nM", "apparent KD of MS2 coat protein": 19.4}

Request: Tell me the measured apparent KD of MS2 coat protein of GGUGGACAUGAGGAUCACCCAUGUGAGGAUAUCGGCCGGCUAGUGGCGGCUGGCUUCACGAGAAGGCGCAUAGU [Exclusion 1 V78] (puzzle: Exclusion 1) , please.
Response: 65.4

Request: Give its apparent KD of MS2 coat protein value. Item: GUGUAGCUAGGAUAUACAUGAGGAUCACCCAUGUGAAUAAGAUAGAAUAAGAUAAAGUGUAGAAGGAGUAGUGU [Excluse me!!! 15 - Jieux - Exclusion 3] (puzzle: Exclusion 3)
Response: 18.2

Request: Fill in the blank: the reported apparent KD of MS2 coat protein of UUUAAUUUUUUUUUUUUACAAGCUUUUUGCUCGUCUUAUACAUGAGGAUCACCCAUGUAGGUGAAAAGUAAAUUAUC [JMF 45] (puzzle: Sensor v3, turn-off variant 2) is ____.
Response: 82.1

Request: Query (sequence): GCAGGCGUCUUGGCUCGUCUUAUUUUGAGAGGAUUGAUAACAUGAGGAUCACCCAUGUUUGUGGGAGAGUUGCAGUG [JR_SV3TOV2_Sub016] (puzzle: Sensor v3, turn-off variant 2) ; field requested: apparent KD of MS2 coat protein
Response: 283

Request: Item under review: GGUGGACAUGAGGAUCACCCAUGUGAGGAUAUCGGCCGGUUCGUGGUGGCUGGCCUCUCGAGAAGGCGCAUAGU [Exclusion 1 V73] (puzzle: Exclusion 1) . Reported apparent KD of MS2 coat protein?
Response: 44.1

Request: I have this sequence here, AGAUCACAUGAGGAUCACCCAUGUCAGGAUAUGAUACUAUGUACUUCGGUACAUAGUAUCAGAAGGGACAUAAA [Ex1-3: 69] (puzzle: Exclusion 1) , and I need its recorded apparent KD of MS2 coat protein.
Response: 140

---

tested on: K4 kissing-loop RNA reporter; assay: apparent KD of K4 kissing-loop reporter; higher = weaker reporter binding; conditions: Eterna round: R107; input ligand: tryptophan 2.4 mM;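 further: bound reporter read as fluorescence of individual clusters on recovered sequencing chips by microscopy, with normalized cluster intensities fitted with a binding model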
valueKind: apparent KD of K4 kissing-loop reporter

{"sequenceRecord": "GUAGACGUACCUUCAGUGAUGUUGAAGGAUACCAGAUGUUAUCACAUCCCUUGGCAGCCUUGGGAUAACAGUGAGUCGGAAUAUG [Essoaran]", "apparent KD of K4 kissing-loop reporter": "168 nM"}
{"sequenceRecord": "UUAGGAGUGGAAGGAUAUCCUGGUGUGGGUGAUGUUAGUGAUGUUGGAGGUGCAGUGAUGUUGCGCGGAGAAGGUCCGGUGUUGA [BDazzled - #5 - Exc. FMN B]", "apparent KD of K4 kissing-loop reporter": "263 nM"}
{"sequenceRecord": "UUAUACUCAUGUAAAGAACUAGUAACCGAAGGAGCGACAUAAAAGUCAGGUAGGUCGCGGAUUUCUCAGUGAUGUUGAGAGCAUU [JR_SSArginiA_Sub012]", "apparent KD of K4 kissing-loop reporter": "93.9 nM"}

Request: Look at this sequence and give its reported apparent KD of K4 kissing-loop reporter. UACAUAUCACUUUUUCUACAAUUAUUUAGUCAGGAUAUCGAUUAAACGAGAAGGGACAUUAUCAAGUGAUGUUUGAUAAUUCAAA [JR_Nu_SSFMNA_Sub028]
Response: 124 nM

src = the supplement of paper PMC9170038
